Target: UniProt P23977
Sequence (P23977 whole entry): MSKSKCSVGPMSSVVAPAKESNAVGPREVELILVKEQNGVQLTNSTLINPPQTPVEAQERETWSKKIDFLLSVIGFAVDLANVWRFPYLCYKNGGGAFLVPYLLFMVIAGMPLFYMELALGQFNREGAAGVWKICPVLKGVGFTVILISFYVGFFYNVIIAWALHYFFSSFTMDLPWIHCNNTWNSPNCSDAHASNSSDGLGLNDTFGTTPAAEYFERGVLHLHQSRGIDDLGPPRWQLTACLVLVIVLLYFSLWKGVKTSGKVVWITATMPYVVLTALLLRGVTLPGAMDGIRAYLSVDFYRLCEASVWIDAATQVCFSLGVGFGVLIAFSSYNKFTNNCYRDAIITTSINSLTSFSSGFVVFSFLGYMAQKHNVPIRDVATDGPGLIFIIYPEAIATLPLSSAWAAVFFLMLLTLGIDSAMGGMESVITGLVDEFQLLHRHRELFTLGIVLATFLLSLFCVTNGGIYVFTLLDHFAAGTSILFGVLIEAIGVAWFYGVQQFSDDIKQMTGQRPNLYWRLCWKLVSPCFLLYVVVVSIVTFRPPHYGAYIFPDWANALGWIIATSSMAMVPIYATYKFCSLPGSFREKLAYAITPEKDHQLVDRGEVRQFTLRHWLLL
Experiment: Inhibition of high affinity uptake of [3H]-DA by dopamine transporter in nerve endings obtained from rat brain.
Threshold check on Ki: strictly below 1 µM is rule met; on or above 1 µM is rule not met.

Some solved entries appear below for comparison.
{"compound": "COC(=O)C1CN(CCCCl)CC[C@@H]1c1ccc(Cl)cc1 (some centres undefined)", "system name": "UniProt P23977", "cat": "rule not met"}
{"compound": "COC(=O)C1CN(C(C)=O)CC[C@@H]1c1ccc(Cl)cc1 (some centres undefined)", "system name": "UniProt P23977", "cat": "rule not met"}
{"compound": "OCC1CNCC[C@@H]1c1ccc(Cl)cc1 (some centres undefined)", "system name": "UniProt P23977", "cat": "rule met"}

Exam item: Does the reported Ki of COC(=O)C1CN(CCCc2ccccc2)CC[C@@H]1c1ccc(Cl)cc1 (some centres undefined) stay below 1 µM?
Marked response: rule met

Exam item: CCOC(=O)CCN1CC[C@H](c2ccc(Cl)cc2)C(C(=O)OC)C1 (some centres undefined) ?
Marked response: rule not met

Exam item: Cc1noc(C2CN(C)CC[C@@H]2c2ccc(Cl)cc2)n1 (some centres undefined) ?
Marked response: rule met

Exam item: COC(=O)C1CN(CCC(c2ccccc2)c2ccccc2)CC[C@@H]1c1ccc(Cl)cc1 (some centres undefined) ?
Marked response: rule not met

Exam item: `COC(=O)[C@@H]1CN(Cc2ccccc2)CC[C@@H]1c1ccc(Cl)cc1` ?
Marked response: rule not met

====

Biological target: Norepinephrine transporter (Rattus norvegicus, UniProt Q9WTR4)
Sequence (Q9WTR4 whole entry): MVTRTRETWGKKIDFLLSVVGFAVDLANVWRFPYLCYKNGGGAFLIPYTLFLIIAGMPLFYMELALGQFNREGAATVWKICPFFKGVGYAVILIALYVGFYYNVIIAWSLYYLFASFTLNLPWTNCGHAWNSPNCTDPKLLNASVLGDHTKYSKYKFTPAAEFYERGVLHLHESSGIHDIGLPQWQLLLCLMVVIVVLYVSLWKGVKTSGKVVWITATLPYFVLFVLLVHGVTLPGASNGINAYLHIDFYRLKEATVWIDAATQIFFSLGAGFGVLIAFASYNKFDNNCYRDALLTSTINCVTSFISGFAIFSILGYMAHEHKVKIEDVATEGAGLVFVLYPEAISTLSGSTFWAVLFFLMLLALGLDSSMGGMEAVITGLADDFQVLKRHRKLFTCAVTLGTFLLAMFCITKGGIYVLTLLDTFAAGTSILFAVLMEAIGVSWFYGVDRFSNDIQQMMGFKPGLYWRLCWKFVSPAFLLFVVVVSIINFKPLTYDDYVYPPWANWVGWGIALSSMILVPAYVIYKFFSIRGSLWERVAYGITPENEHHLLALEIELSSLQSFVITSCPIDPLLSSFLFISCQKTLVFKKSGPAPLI
Experiment: Inhibition of high affinity uptake of [3H]NE by norepinephrine transporter in nerve endings obtained from rat brain.
Threshold check on Ki: strictly below 1000 nM is label 1; on or above 1000 nM is label 0.

{"molecule": "Cc1noc(C2CNCC[C@@H]2c2ccc(Cl)cc2)n1 (some centres not stated)", "cat": "label 1"}
{"molecule": "Cc1noc(C2CN(C)CC[C@@H]2c2ccc(Cl)cc2)n1 (some centres not stated)", "cat": "label 1"}
{"molecule": "OCC1CNCC[C@@H]1c1ccc(Cl)cc1 (some centres not stated)", "cat": "label 1"}
{"molecule": "CN1CC[C@H](c2ccc(Cl)cc2)[C@@H](CO)C1", "cat": "label 1"}
{"molecule": "COC(=O)C1CN(CCCF)CC[C@@H]1c1ccc(Cl)cc1 (some centres not stated)", "cat": "label 1"}

Let's switch to this molecule now.
Exam item: Does the reported Ki of `COC(=O)[C@@H]1CN(Cc2ccccc2)CC[C@@H]1c1ccc(Cl)cc1` stay below 1000 nM?
Marked response: label 0

====

Molecular target: Monoamine transporters; Norepinephrine & serotonin (Rattus norvegicus) (UniProt P31652+Q9WTR4)
Test: Ratio of Ki at norepinephrine transporter and Ki at 5-HT transporter.
Format: protein assay
Classes by Ratio: bottom range = under 0.1, center range = from 0.1 up to 0.4, top range = 0.4 and over

{"compound": "Cc1noc(C2CN(C)CC[C@@H]2c2ccc(Cl)cc2)n1 (stereo partly specified)", "cat": "bottom range"}
{"compound": "COC(=O)C1CN(S(=O)(=O)c2ccccc2)CC[C@@H]1c1ccc(Cl)cc1 (stereo partly specified)", "cat": "top range"}
{"compound": "COC(=O)C1CN(CCC(c2ccccc2)c2ccccc2)CC[C@@H]1c1ccc(Cl)cc1 (stereo partly specified)", "cat": "top range"}
{"compound": "CN1CC[C@H](c2ccc(Cl)cc2)[C@@H](CO)C1", "cat": "center range"}
{"compound": "COC(=O)C1CN(CCCCl)CC[C@@H]1c1ccc(Cl)cc1 (stereo partly specified)", "cat": "bottom range"}

Exam item: Note: place this compound into its band. Item: COC(=O)C1CN(CCCF)CC[C@@H]1c1ccc(Cl)cc1 (stereo partly specified)
Marked response: bottom range

Exam item: OCC1CNCC[C@@H]1c1ccc(Cl)cc1 (stereo partly specified) ?
Marked response: center range

====

# Lookup of reported Ki keyed by entry
Molecular target: Norepinephrine transporter (Rattus norvegicus)
Experiment: Inhibition of high affinity uptake of [3H]NE by norepinephrine transporter in nerve endings obtained from rat brain.
Number in nM, nothing else.

{"compound": "COC(=O)[C@@H]1CN(CCc2ccccc2)CC[C@@H]1c1ccc(Cl)cc1", "unit spec": "nM", "Ki": 233}

Proceeding to the next compound to report its Ki.
Exam item: Give its Ki value. Item: `COC(=O)[C@H]1CN(CCc2ccccc2)CC[C@@H]1c1ccc(Cl)cc1`
Marked response: 142

====

Biological target: Monoamine transporters; Norepinephrine & serotonin (Rattus norvegicus) (UniProt P31652+Q9WTR4)
Assay: Ratio of Ki at norepinephrine transporter and Ki at 5-HT transporter.
Format: protein assay
Threshold check on Ratio: strictly below 0.4 is class 1; on or above 0.4 is class 0.

Some solved entries appear below for comparison.
{"compound": "COC(=O)[C@@H]1CN(Cc2ccccc2)CC[C@@H]1c1ccc(Cl)cc1", "cat": "class 0"}
{"compound": "COC(=O)[C@@H]1CN(CCc2ccccc2)CC[C@@H]1c1ccc(Cl)cc1", "cat": "class 1"}
{"compound": "CCOC(=O)CCN1CC[C@H](c2ccc(Cl)cc2)C(C(=O)OC)C1 (some centres undefined)", "cat": "class 1"}
{"compound": "COC(=O)[C@H]1CN(CCc2ccccc2)CC[C@@H]1c1ccc(Cl)cc1", "cat": "class 1"}
{"compound": "COC(=O)C1CNCC[C@@H]1c1ccc(Cl)cc1 (some centres undefined)", "cat": "class 1"}
{"compound": "Cc1noc(C2CNCC[C@@H]2c2ccc(Cl)cc2)n1 (some centres undefined)", "cat": "class 1"}
{"compound": "COC(=O)C1CN(CCCc2ccccc2)CC[C@@H]1c1ccc(Cl)cc1 (some centres undefined)", "cat": "class 1"}

Exam item: Does the reported Ratio of COC(=O)C1CN(C(C)C)CC[C@@H]1c1ccc(Cl)cc1 (some centres undefined) stay below 0.4?
Marked response: class 0

====

# Lookup of reported pKi keyed by entry
Target: Norepinephrine transporter (Rattus norvegicus, UniProt Q9WTR4)
Assay: Inhibition of high affinity uptake of [3H]NE by norepinephrine transporter in nerve endings obtained from rat brain.
On this scale, pKi is minus log10 of a concentration expressed in M (mol/L).

The examples below pair each entry with its known result.
{"molecule": "COC(=O)C1CN(C(C)C)CC[C@@H]1c1ccc(Cl)cc1 (some centres undefined)", "pKi": 5.74}
{"molecule": "COC(=O)C1CNCC[C@@H]1c1ccc(Cl)cc1 (some centres undefined)", "pKi": 8.10}
{"molecule": "COC(=O)C1CN(CCCc2ccccc2)CC[C@@H]1c1ccc(Cl)cc1 (some centres undefined)", "pKi": 6.31}

Exam item: Give its pKi value. Item: COC(=O)C1CN(S(=O)(=O)c2ccccc2)CC[C@@H]1c1ccc(Cl)cc1 (some centres undefined)
Marked response: 4.79

Exam item: COC(=O)C1CN(CCC(c2ccccc2)c2ccccc2)CC[C@@H]1c1ccc(Cl)cc1 (some centres undefined) ?
Marked response: 5.36

Exam item: CCOC(=O)CCN1CC[C@H](c2ccc(Cl)cc2)C(C(=O)OC)C1 (some centres undefined) ?
Marked response: 5.68

Exam item: COC(=O)C1CN(CCCCl)CC[C@@H]1c1ccc(Cl)cc1 (some centres undefined) ?
Marked response: 6.36

Exam item: COC(=O)C1CN(Cc2ccc(O)cc2)CC[C@@H]1c1ccc(Cl)cc1 (some centres undefined) ?
Marked response: 5.97
